Listing of entries alongside the reported IC50.
Molecular target: GST-CBP(1081-1197) bromodomain (Homo sapiens (Human), UniProt Q92793)
Sequence (Q92793 1081-1197): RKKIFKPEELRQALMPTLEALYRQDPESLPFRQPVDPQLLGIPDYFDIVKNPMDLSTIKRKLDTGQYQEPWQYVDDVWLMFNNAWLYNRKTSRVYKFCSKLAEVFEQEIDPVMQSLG
Experiment: CBP AlphaScreen Assay
Settings: binding to biotin-H4(1-21) Ac-K5/8/12/16 peptide
measured.parameter: IC50

[[record]]
chemical_smiles = "CNC(=O)N1CCn2c(C3CCOCC3)nc(-c3cccc4cc(N5CCOCC5)ncc34)c2C1"
target_entity = "GST-CBP(1081-1197) bromodomain (Homo sapiens (Human), UniProt Q92793)"
measured_parameter = "IC50"
result = "0.014 µM"

[[record]]
chemical_smiles = "CNC(=O)N1CCn2c(C(C)C)nc(-c3ccc4c(c3)c(-c3cnn(C)c3)nn4C)c2C1"
target_entity = "GST-CBP(1081-1197) bromodomain (Homo sapiens (Human), UniProt Q92793)"
measured_parameter = "IC50"
result = "0.012 µM"

[[record]]
chemical_smiles = "CNC(=O)N1CCn2c(C3CN(C)C3)nc(-c3ccc4c(c3)c(-c3cnn(C)c3)nn4C)c2C1"
target_entity = "GST-CBP(1081-1197) bromodomain (Homo sapiens (Human), UniProt Q92793)"
measured_parameter = "IC50"
result = "0.115 µM"

[[record]]
chemical_smiles = "CNC(=O)N1CCn2c(C3CC3)nc(-c3csc4cc(-c5cnn(C)c5)ncc34)c2C1"
target_entity = "GST-CBP(1081-1197) bromodomain (Homo sapiens (Human), UniProt Q92793)"
measured_parameter = "IC50"
result = "0.033 µM"


====

Target: GST-CBP(1081-1197) bromodomain (Homo sapiens (Human), UniProt Q92793)
Assay: CBP AlphaScreen Assay
Conditions: binding to biotin-H4(1-21) Ac-K5/8/12/16 peptide
pIC50: −log10 of the molar value.
Catalogue of pIC50 values
measured.parameter: pIC50

[[record]]
compound = "CC(=O)N1CCn2c(C3CC3)nc(-c3cnc4c(c3)c(-c3cnn(C)c3)nn4C)c2C1 [Example 26]"
numeric_readout = 6.74

[[record]]
compound = "CC(=O)N1CCn2cnc(-c3ccc4c(c3)c(-c3cnn(C)c3)nn4C)c2C1 [Example 10]"
numeric_readout = 6.71

[[record]]
compound = "CNC(=O)N1CCn2c(C3CCOCC3)nc(-c3cccc4nc(-c5cnn(C)c5)c(C#N)cc34)c2C1 [Example 64]"
numeric_readout = 8.40

[[record]]
compound = "CC(=O)N1CCC(c2nc(-c3ccc4c(c3)c(-c3cnn(C)c3)nn4C)c3n2CCN(C(C)=O)C3)CC1 [Example 53]"
numeric_readout = 6.75

[[record]]
compound = "CC(=O)N1CCn2c(C3CC3)nc(N3CCCc4cc(-c5ccc(C(N)=O)cc5)ccc43)c2C1 [Example 35]"
numeric_readout = 7.10

[[record]]
compound = "CC(=O)N1CCn2c(C3CC3)nc(N3CCCc4cc(-c5ccnc(N6CCOCC6)c5)ccc43)c2C1 [Example 112]"
numeric_readout = 6.57

[[record]]
compound = "CNC(=O)N1CCn2c(C3CC3)nc(-c3ccnc4nc(-c5cnn(C)c5)c(C(F)F)cc34)c2C1 [Example 36]"
numeric_readout = 7.42

[[record]]
compound = "CNC(=O)c1ccc(-c2cc3cccc(-c4nc(C5CC5)n5c4CN(C(=O)NC)CC5)c3cn2)cn1 [Example 17]"
numeric_readout = 9.00

[[record]]
compound = "CNC(=O)N1CCn2c(C3CC3(F)F)nc(-c3cccc4nc(-c5cnn(C)c5)c(C(F)F)cc34)c2C1 (stereo not drawn) [Example 60]"
numeric_readout = 7.74

[[record]]
compound = "CC(=O)N1CCn2c(N3CCOCC3)nc(-c3ccc4c(c3)c(-c3cnn(C)c3)nn4C)c2C1 [Example 16]"
numeric_readout = 6.41

[[record]]
compound = "CNC(=O)N1CCn2c(C3CCC(F)(F)CC3)nc(-c3cccc4nc(-c5cnn(C)c5)c(C(F)F)cc34)c2C1 [Example 59]"
numeric_readout = 8.30

[[record]]
compound = "CNC(=O)N1CCn2c(C3CCC(F)(F)C3)nc(-c3cccc4nc(-c5cnn(C)c5)c(C(F)F)cc34)c2C1 (stereo not drawn) [Example 61]"
numeric_readout = 7.60

[[record]]
compound = "CNC(=O)N1CCn2c(C3CCNCC3)nc(-c3ccc4c(c3)c(-c3cnn(C)c3)nn4C)c2C1 [Example 52]"
numeric_readout = 7.70

[[record]]
compound = "CNC(=O)N1CCn2c(C3CCOC3)nc(-c3ccc4c(c3)c(-c3cnn(C)c3)nn4C)c2C1 (stereo not drawn) [Example 6]"
numeric_readout = 7.62

[[record]]
compound = "CNC(=O)c1cc(-c2ccc3c(c2)CCCN3c2nc(C3CC3)n3c2CN(C(C)=O)CC3)ccn1 [Example 117]"
numeric_readout = 6.13


====

Reported IC50 by item:
Target: GST-CBP(1081-1197) bromodomain (Homo sapiens (Human), UniProt Q92793)
Assay: CBP AlphaScreen Assay
Settings: binding to biotin-H4(1-21) Ac-K5/8/12/16 peptide
measured.parameter: IC50 (nM)

[[record]]
chemical_smiles = "CNC(=O)N1CCn2c(C)nc(-c3ccc4c(c3)c(-c3cnn(C)c3)nn4C)c2C1"
numeric_readout = 36

[[record]]
chemical_smiles = "CNC(=O)N1CCn2c(C3CCC(F)(F)CC3)nc(-c3c(F)ccc4cc(-c5cnc(C)s5)ncc34)c2C1"
numeric_readout = 2

[[record]]
chemical_smiles = "COc1ccc(-c2nc(C3CC3)n3c2CN(C(C)=O)CC3)cc1OC"
numeric_readout = 4260

[[record]]
chemical_smiles = "CNC(=O)N1CCn2c(C3CC(F)(F)C3)nc(-c3c(F)ccc4cc(C5CCOCC5)ncc34)c2C1"
numeric_readout = 48

[[record]]
chemical_smiles = "CC(=O)N1CCn2c(C3CC3)nc(N3CCCc4cc(-c5ccc(=O)n(C)c5)ccc43)c2C1"
numeric_readout = 193

[[record]]
chemical_smiles = "CC(=O)N1CCn2c(C3CC3)nc(N3CCCc4cc(-c5cccc(S(N)(=O)=O)c5)ccc43)c2C1"
numeric_readout = 358

[[record]]
chemical_smiles = "CNC(=O)c1ccc(-c2cc3cccc(-c4nc(C5CCOCC5)n5c4CN(C(=O)NC)CC5)c3cn2)cn1"
numeric_readout = 1

[[record]]
chemical_smiles = "CNC(=O)N1CCn2c(C3CC3)nc(-c3cccc4nc(-c5cnn(C)c5)c(C(F)F)cc34)c2C1"
numeric_readout = 37

